# credit: patent US20260167619A2

ASSAY TARGET: BaF3-Del_TM_CS cells (Homo sapiens, UniProt P00533, T790M/C797S, cells depend on it, form not given)
TEST NAME: Cell antiproliferation assay (CellTiter-Glo), BaF3-Del_TM_CS
Assay type: cell-based
CONDITION LABEL: 48 h treatment, read-out: BaF3-Del_TM_CS IC50
ASSAY ENDPOINT: GI50 (µM)

Past entries and their recorded results:
MOLECULE	RECORDED NUMBER
COc1cc(N2CCC(N3CCN(C)CC3)CC2)ccc1Nc1ncc(Cl)c(Nc2cccc3c2N(S(C)(=O)=O)CC3)n1	0.00759
COc1cc(N2CCC(N3CCN(C)CC3)CC2)ccc1Nc1ncc(Cl)c(Nc2cccc3c2N(S(C)(=O)=O)CC3C)n1 (centres unmarked)	0.0133
COc1cc(N2CCC(N3CCN(C)CC3)CC2)ccc1Nc1ncc(Cl)c(Nc2cccc3c2N(S(=O)(=O)CC2CC(F)(F)C2)CC3)n1	0.453
COc1cc(C2CCN(C)CC2)c(C)cc1Nc1nc(Nc2cccc3c2N(S(C)(=O)=O)CC3)c2cc[nH]c2n1	0.059
CN1CCN(c2ccc(Nc3nc(Nc4cccc5c4N(S(C)(=O)=O)CC5)c4cc[nH]c4n3)cn2)CC1	0.0643
CNC(=O)N1CCc2cccc(Nc3nc(Nc4ccc(N5CCC(N6CCN(C)CC6)CC5)cc4OC)ncc3Cl)c21	0.802
COc1cc(N2CC3(CN(C)C3)C2)c(F)cc1Nc1nc(Nc2cccc3c2N(S(C)(=O)=O)CC3)c2cc[nH]c2n1	0.104
COc1cc(N2CCC(N3CCN(C)CC3)CC2)ccc1Nc1ncc(Cl)c(Nc2cc(C)cc3c2N(S(C)(=O)=O)CC3)n1	0.971
COc1cc(N2CCC(N3CCN(C)CC3)CC2)ccc1Nc1ncc(Cl)c(Nc2cccc3c2N(S(C)(=O)=O)C(C)C3)n1 (centres unmarked)	0.00747
COc1cc(N2CCC(N3CCN(C)CC3)CC2)ccc1Nc1nc(Nc2cccc3c2N(S(C)(=O)=O)CC3)c2c(Cl)c[nH]c2n1	0.0274

a. COc1cc(N2CCC3(CC2)CN(C)C3)c(C)cc1Nc1nc(Nc2cccc3c2N(S(C)(=O)=O)CC3)c2cc[nH]c2n1
b. CCCS(=O)(=O)N1CCc2cccc(Nc3nc(Nc4ccc(N5CCC(N6CCN(C)CC6)CC5)cc4OC)ncc3Cl)c21
Between a and b , which one shows the larger GI50 value? When you have decided, please share the label of that item. b

1. CN1CCN(c2ccc(Nc3nc(Nc4cccc5c4N(S(C)(=O)=O)CC5)c4cc[nH]c4n3)c(F)c2F)CC1
2. COc1cc(N2CCC(N3CCN(C)CC3)CC2)ccc1Nc1ncc(C(F)(F)F)c(Nc2cccc3c2N(S(C)(=O)=O)CC3)n1
Input pair: 1 , 2 . Output: entry with lower GI50. When you have decided, please share the label of that item. 2
(2: 0.0262 µM, 1: 0.0916 µM)

* * *

ASSAY TARGET: EGFR(Dell9_T790M_C797S) (aa 669-1210, in house) (Homo sapiens, UniProt P00533, T790M/C797S, form not given)
Sequence (P00533 with tags, fused parts or gaps DEL746-750/T790M/C797S, form open): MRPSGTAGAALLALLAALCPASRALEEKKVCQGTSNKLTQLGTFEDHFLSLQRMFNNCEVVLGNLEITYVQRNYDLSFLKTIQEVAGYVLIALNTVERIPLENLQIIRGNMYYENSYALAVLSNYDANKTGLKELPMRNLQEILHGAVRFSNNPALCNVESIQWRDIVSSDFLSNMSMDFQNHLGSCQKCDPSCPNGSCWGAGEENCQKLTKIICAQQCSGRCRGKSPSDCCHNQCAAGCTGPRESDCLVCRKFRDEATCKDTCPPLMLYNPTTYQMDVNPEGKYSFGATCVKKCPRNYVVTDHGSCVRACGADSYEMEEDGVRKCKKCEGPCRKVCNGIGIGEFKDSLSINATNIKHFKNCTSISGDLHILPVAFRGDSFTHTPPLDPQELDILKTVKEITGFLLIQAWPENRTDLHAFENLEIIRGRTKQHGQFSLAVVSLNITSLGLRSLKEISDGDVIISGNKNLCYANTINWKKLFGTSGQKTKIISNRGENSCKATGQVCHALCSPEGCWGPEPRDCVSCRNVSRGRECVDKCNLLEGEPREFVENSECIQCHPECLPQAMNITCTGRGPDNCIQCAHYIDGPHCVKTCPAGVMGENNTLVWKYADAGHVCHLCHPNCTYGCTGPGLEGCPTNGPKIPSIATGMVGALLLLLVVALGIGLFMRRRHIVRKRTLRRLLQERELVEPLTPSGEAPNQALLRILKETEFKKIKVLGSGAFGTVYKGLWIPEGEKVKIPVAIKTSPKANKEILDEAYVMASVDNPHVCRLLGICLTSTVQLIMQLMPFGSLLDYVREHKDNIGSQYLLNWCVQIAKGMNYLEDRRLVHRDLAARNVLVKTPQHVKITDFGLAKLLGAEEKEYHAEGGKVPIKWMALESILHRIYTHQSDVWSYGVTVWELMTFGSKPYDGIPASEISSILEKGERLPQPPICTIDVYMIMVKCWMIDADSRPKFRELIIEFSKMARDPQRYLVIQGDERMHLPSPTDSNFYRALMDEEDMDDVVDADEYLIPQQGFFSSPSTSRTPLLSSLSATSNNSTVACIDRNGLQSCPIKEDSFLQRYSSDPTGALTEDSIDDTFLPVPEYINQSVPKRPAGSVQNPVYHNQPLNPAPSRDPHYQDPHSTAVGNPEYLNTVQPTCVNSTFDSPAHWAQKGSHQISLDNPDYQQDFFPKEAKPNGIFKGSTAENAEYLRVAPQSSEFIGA
TEST NAME: Biochemical EGFR inhibition assay (TR-FRET), Del19/T790M/C797S mutant
CONDITION LABEL: ATP at Km, 15 min pre-incubation, 60 min reaction; read-out: Del_TM_CS (Km ATP) IC50
pIC50: −log10 of the molar value.
ASSAY ENDPOINT: pIC50

A. COc1cc(N2[C@@H]3CC[C@H]2CN(C)C3)ccc1Nc1nc(Nc2cccc3c2N(S(C)(=O)=O)CC3)c2cc[nH]c2n1
B. COc1cc(N2CCC(N3CCN(C)CC3)CC2)ccc1Nc1ncc(Cl)c(Nc2cccc3c2N(S(C)(=O)=O)CC32CC2)n1
C. CN(C)C1CCN(c2ccc(Nc3ncc(Br)c(Nc4cccc5c4N(S(C)(=O)=O)CC5)n3)c3c2CC(C)(C)O3)CC1
D. CCN1CCN(C2CCN(c3c(F)cc(Nc4nc(Nc5cccc6c5N(S(C)(=O)=O)CC6)c5cc[nH]c5n4)cc3F)CC2)CC1
Sort the compounds on pIC50; start with the lowest figure. Reply with the item labels sorted in the order that was asked for. A, C, D, B
(A: 7.95, C: 8.24, D: 8.70, B: 9.52)

A. CN1CCN(c2ccc(Nc3nc(Nc4cccc5c4N(S(C)(=O)=O)CC5)c4cc[nH]c4n3)cn2)CC1
B. COc1cc(N2CCC(N3CCN(C)CC3)CC2)c(C)cc1Nc1ncc(Cl)c(Nc2cccc3c2N(S(C)(=O)=O)CC3)n1
C. COc1cc(N2CCC(N(C)C)CC2)c(C)cc1Nc1ncc(Br)c(Nc2cccc3c2N(S(C)(=O)=O)CC3)n1
Arrange items by their pIC50 values in increasing order. Reply with the item labels sorted in the order that was asked for. A, B, C
(A: 8.20, B: 9.46, C: 9.70)

* * *

ASSAY TARGET: EGFR(L858R_T790M_C797S) (aa695-end, Invitrogen) (Homo sapiens, UniProt P00533, C797S/L858R/T790M)
Sequence (P00533 695-1210 T790M/C797S/L858R): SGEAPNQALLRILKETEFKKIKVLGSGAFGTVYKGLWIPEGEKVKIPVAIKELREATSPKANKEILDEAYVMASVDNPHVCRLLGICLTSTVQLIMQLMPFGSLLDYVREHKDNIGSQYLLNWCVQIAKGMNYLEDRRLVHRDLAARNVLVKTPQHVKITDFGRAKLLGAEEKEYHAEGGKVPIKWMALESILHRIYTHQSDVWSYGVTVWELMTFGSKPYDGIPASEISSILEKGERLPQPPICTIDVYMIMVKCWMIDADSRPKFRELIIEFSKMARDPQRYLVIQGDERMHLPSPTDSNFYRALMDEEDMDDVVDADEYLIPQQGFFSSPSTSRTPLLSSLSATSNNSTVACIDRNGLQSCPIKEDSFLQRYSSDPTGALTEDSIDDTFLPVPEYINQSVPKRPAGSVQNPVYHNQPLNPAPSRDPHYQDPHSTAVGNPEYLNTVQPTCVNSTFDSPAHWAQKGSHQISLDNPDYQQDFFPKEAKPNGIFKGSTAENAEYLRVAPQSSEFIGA
TEST NAME: Biochemical EGFR inhibition assay (TR-FRET), L858R/T790M/C797S mutant
CONDITION LABEL: ATP at Km, 15 min pre-incubation, 60 min reaction; read-out: LR_TM_CS (Km ATP) IC50
pIC50: −log10 of the molar value.
ASSAY ENDPOINT: pIC50

COMPOUND	ASSAY ENDPOINT	RECORDED NUMBER
COc1cc(N2CCC3(CCN(C)CC3)CC2)c(Cl)cc1Nc1nc(Nc2cccc3c2N(S(C)(=O)=O)CC3)c2cc[nH]c2n1 [Example 96]	pIC50	8.85
COc1cc(N2C[C@@H]3C[C@H]2CN3C)ccc1Nc1nc(Nc2cccc3c2N(S(C)(=O)=O)CC3)c2cc[nH]c2n1 [Example 110]	pIC50	8.29

A. CNS(=O)(=O)N1CCc2cccc(Nc3nc(Nc4ccc(N5CCC(N6CCN(C)CC6)CC5)cc4OC)ncc3Cl)c21 [Example 14]
B. COc1cc(Nc2nc(Nc3cccc4c3N(S(C)(=O)=O)CC4)c3cc[nH]c3n2)cc(F)c1N1CCC(N2CCN(C)CC2)CC1 [Example 148]
C. COc1cc(Nc2nc(Nc3cccc4c3N(S(C)(=O)=O)CC4)c3cc[nH]c3n2)c(F)cc1N1CCC(N2CCN(C)CC2)CC1 [Example 149]
D. COc1cc(N2CCC(N3CCN(C)CC3)CC2)ccc1Nc1nc2c(c(Nc3cccc4c3N(S(C)(=O)=O)CC4)n1)CCC2 [Example 74]
Arrange items by their pIC50 values in increasing order. Reply with the item labels sorted in the order that was asked for. D, B, C, A

* * *

ASSAY TARGET: BaF3-LR_TM_CS cells (Homo sapiens, UniProt P00533, T790M/C797S/L858R, cells depend on it)
Sequence (P00533 whole entry T790M/C797S/L858R): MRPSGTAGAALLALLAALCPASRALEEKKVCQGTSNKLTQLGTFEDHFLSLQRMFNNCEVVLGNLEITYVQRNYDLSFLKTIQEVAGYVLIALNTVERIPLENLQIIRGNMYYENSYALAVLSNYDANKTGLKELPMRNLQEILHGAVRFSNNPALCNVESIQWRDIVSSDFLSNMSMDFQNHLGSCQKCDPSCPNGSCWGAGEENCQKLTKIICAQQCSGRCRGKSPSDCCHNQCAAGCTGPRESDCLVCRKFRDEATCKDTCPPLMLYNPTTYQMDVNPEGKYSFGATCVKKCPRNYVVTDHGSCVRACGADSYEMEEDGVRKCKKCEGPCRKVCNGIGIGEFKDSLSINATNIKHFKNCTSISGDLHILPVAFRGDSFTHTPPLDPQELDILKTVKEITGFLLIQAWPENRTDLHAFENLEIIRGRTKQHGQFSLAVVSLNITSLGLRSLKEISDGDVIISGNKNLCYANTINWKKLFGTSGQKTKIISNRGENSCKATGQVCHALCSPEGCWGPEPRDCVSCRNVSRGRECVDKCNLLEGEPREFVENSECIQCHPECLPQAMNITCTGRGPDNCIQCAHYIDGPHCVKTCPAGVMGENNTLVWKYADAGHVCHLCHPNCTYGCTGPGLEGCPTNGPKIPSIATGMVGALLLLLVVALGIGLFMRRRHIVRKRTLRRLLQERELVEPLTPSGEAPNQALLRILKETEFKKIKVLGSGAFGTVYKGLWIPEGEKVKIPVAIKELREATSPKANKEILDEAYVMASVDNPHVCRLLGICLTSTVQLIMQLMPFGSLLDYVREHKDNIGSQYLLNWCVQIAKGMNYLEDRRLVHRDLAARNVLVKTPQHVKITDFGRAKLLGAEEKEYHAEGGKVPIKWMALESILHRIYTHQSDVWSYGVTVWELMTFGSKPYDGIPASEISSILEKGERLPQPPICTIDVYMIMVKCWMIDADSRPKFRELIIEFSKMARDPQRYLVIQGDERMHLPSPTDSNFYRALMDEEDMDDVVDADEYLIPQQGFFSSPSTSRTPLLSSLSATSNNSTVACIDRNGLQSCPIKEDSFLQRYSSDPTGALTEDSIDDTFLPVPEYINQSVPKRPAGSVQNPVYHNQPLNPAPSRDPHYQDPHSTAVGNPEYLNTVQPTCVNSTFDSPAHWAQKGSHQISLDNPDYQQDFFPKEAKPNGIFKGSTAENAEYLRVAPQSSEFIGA
TEST NAME: Cell antiproliferation assay (CellTiter-Glo), BaF3-LR_TM_CS
Format: cell-based
CONDITION LABEL: 48 h treatment, read-out: BaF3-LR_TM_CS IC50
ASSAY ENDPOINT: GI50 (µM)

Past entries and their recorded results:
COMPOUND	GI50 / µM
COc1cc(N2CCC3(CC2)CN(C)C3)c(C)cc1Nc1nc(Nc2cccc3c2N(S(C)(=O)=O)CC3)c2cc[nH]c2n1 [Example 100]	0.116
COc1cc(C2CCC(N(C)C)CC2)c(C)cc1Nc1nc(Nc2cccc3c2N(S(C)(=O)=O)CC3)c2cc[nH]c2n1 (stereo not shown) [Example 104]	0.195

1. CN(C)C1CCN(c2ccc(Nc3ncc(Br)c(Nc4cccc5c4N(S(C)(=O)=O)CC5)n3)c3c2OCCO3)CC1 [Example 54]
2. COc1cc(N2CCC(N3CCN(C)CC3)CC2)ccc1Nc1ncc(Cl)c(Nc2ccc(F)c3c2N(S(C)(=O)=O)CC3)n1 [Example 1]
3. COc1cc(N2CCC(N3CCN(C)CC3)CC2)ccc1Nc1ncc(Cl)c(Nc2ccc(Br)c3c2N(S(C)(=O)=O)CC3)n1 [Example 2]
4. COc1cc(N2CCC(N3CCN(C)CC3)CC2)c(C)cc1Nc1ncc(Cl)c(Nc2cccc3c2N(S(C)(=O)=O)CC3)n1 [Example 39]
5. COc1cc(N2CCC(N3CCN(C)CC3)CC2)ccc1Nc1ncc(Cl)c(Nc2cccc3c2N(S(C)(=O)=O)C(C)C3)n1 (stereo not shown) [Example 18]
# sort list by recorded GI50, greatest to least Reply with the item labels sorted in the order that was asked for. 2, 3, 1, 5, 4
(2: 0.152 µM, 3: 0.0661 µM, 1: 0.0424 µM, 5: 0.0165 µM, 4: 0.0114 µM)

* * *

ASSAY TARGET: BaF3-Del_TM_CS cells (Homo sapiens, UniProt P00533, T790M/C797S, cells depend on it, form not given)
TEST NAME: Cell antiproliferation assay (CellTiter-Glo), BaF3-Del_TM_CS
Assay type: cell-based
CONDITION LABEL: 48 h treatment, read-out: BaF3-Del_TM_CS IC50
ASSAY ENDPOINT: GI50 (µM)

Past entries and their recorded results:
1) COc1cc(N2CCC(N(C)C)CC2)ccc1Nc1ncc(Cl)c(Nc2cccc3c2N(S(C)(=O)=O)CC3)n1 0.01
2) COc1cc(N2CCC(N3CCN(C)CC3)CC2)ccc1Nc1ncc(F)c(Nc2cccc3c2N(S(C)(=O)=O)CC3)n1 0.0628
3) COc1cc(N2CCC(N3CCN(C)CC3)CC2)ccc1Nc1ncc(Cl)c(Nc2cccc3c2N(S(=O)(=O)C(C)(C)C)CC3)n1 0.455

a. COc1cc(N2CCC(N3CCN(C)CC3)CC2)c(C)cc1Nc1ncc(Br)c(Nc2cccc3c2N(S(C)(=O)=O)CC3)n1
b. CCN1CCN(C2CCN(c3ccc(Nc4nc(Nc5cccc6c5N(S(C)(=O)=O)CC6)c5cn[nH]c5n4)cc3F)CC2)CC1
c. COc1cc(N2CCC3(CCN(C)CC3)CC2)c(Cl)cc1Nc1nc(Nc2cccc3c2N(S(C)(=O)=O)CC3)c2cc[nH]c2n1
d. CCN1CCN(C2CCN(c3ccc(Nc4nc(Nc5cccc6c5N(S(C)(=O)=O)CC6)c5cc[nH]c5n4)cc3F)CC2)CC1
# sort list by recorded GI50, greatest to least Reply with the item labels sorted in the order that was asked for. b, c, d, a
(b: 0.0905 µM, c: 0.0293 µM, d: 0.0083 µM, a: 0.00156 µM)
